Target: T1, Macaca fascicularis IL2Rγ extracellular domain expressed with a C-terminal myc-myc-hexahistidine tag (Macaca fascicularis)
T1 construct: whole entry is the tagged construct; also called mfIL-2Rg-MMH
T1 chain: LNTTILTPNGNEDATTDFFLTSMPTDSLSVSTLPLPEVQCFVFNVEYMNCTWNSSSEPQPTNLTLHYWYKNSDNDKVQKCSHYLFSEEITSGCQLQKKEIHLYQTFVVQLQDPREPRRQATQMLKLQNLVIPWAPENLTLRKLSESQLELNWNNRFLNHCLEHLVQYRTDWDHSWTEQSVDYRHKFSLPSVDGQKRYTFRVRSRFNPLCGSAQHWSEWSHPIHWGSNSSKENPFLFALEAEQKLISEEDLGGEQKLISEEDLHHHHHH
Assay: SPR Biacore 4000, anti-hFc-captured mAb, 37 C

{"columns": ["binder", "100 nM Ag Bound / RU"],
 "data": [
  ["H4H12900P (antibody, human IgG4 S228P, kappa, V domains shown, fully human anti-IL2Rgamma mAb, human IgG4 Fc) VH: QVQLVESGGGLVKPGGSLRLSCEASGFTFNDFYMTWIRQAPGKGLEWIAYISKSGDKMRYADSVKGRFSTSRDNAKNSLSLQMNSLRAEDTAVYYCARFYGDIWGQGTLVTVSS VL: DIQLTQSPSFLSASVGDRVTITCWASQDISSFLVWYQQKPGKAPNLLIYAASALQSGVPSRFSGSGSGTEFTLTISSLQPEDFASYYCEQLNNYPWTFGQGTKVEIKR", 38],
  ["H4H12884P (antibody, human IgG4 S228P, kappa, V domains shown, fully human anti-IL2Rgamma mAb, human IgG4 Fc) VH: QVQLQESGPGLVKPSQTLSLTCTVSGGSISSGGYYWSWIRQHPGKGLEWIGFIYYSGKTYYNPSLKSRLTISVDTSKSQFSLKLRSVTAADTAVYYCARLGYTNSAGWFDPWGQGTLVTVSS VL: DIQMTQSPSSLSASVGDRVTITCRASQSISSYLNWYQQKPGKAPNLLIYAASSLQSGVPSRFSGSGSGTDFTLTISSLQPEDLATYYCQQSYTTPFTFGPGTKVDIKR", 59],
  ["H4H12889P (antibody, human IgG4 S228P, kappa, V domains shown, fully human anti-IL2Rgamma mAb, human IgG4 Fc; also called REGN7257) VH: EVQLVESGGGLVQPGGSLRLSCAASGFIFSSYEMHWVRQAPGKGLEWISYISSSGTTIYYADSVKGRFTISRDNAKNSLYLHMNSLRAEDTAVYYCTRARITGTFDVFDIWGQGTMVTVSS VL: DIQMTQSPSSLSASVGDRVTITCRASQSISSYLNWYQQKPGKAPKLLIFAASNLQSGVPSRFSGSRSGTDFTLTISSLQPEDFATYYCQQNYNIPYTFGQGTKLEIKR", 29],
  ["H4H12874P (antibody, human IgG4 S228P, kappa, V domains shown, fully human anti-IL2Rgamma mAb, human IgG4 Fc) VH: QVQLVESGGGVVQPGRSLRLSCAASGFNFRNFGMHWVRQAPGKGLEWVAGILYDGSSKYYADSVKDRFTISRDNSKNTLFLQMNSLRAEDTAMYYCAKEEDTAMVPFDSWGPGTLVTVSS VL: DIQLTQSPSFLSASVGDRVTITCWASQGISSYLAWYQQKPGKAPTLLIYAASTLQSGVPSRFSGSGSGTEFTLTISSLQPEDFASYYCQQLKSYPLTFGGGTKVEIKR", 43],
  ["H4H12886P (antibody, human IgG4 S228P, kappa, V domains shown, fully human anti-IL2Rgamma mAb, human IgG4 Fc) VH: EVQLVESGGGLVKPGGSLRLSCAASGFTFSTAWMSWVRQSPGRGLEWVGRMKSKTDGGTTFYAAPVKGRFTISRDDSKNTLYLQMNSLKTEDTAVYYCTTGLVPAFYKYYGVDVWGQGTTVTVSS VL: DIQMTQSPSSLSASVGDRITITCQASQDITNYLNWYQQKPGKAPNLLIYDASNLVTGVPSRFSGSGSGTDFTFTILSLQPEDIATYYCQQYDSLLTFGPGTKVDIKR", 47]
]}

Taken from patent US20200247894A1.
